Tested on: Mycobacterium tuberculosis
Assay: Percent inhibition of compound against Mycobacterium tuberculosis H37Ra at 12.5 ug/mL concentration in BACTEC assay
Format: functional
Reported inhibition at 12.5 µg/mL values for the following molecules.
Hi! Could you send only the number? It should be in %, unit omitted.

Example entries and their recorded answers appear below.
[[record]]
molecule = "OCC1NC(CSc2ccncc2)C(O)C1O (stereo unspecified)"
recorded_number = 6

[[record]]
molecule = "OCC1NC(CSc2ccc3ccccc3c2)C(O)C1O (stereo unspecified)"
recorded_number = 18

[[record]]
molecule = "[O-][S+](CC1NC(CO)C(O)C1O)c1ccccc1 (stereo unspecified)"
recorded_number = 18

[[record]]
molecule = "N#Cc1ccc(SCC2NC(CO)C(O)C2O)cc1 (stereo unspecified)"
recorded_number = 5

[[record]]
molecule = "OCC1NC(CSc2ccccc2)C(O)C1O (stereo unspecified)"
recorded_number = 0


Pending molecule:
Sure, the documented inhibition at 12.5 µg/mL for O=S(=O)(CC1NC(CO)C(O)C1O)c1ccccc1 (stereo unspecified) is 6

Data provenance is ChEMBL document CHEMBL1130732.
